- Tested on: INS1
- Test Description: Percent of compound radioactivity ([3H]-Ap4A Degradation), in presence of added Ap(s)pCH2pp(s)A, in the incubation medium of INS-1 cell membranes
- Format: functional, cell-based
Measured Parameter: Radioactivity
Enter the number, and then the unit.

Hello, I am looking for reported Radioactivity with INS1 for Nc1ncnc2c1ncn2[C@@H]1O[C@H](CO)[C@@H](O)[C@H]1O . Could you help? 19.4%

Hello, I am looking for reported Radioactivity with INS1 for Nc1ncnc2c1ncn2[C@@H]1O[C@H](COP(=O)(O)OP(=O)(O)OP(=O)(O)O)[C@@H](O)[C@H]1O . Could you help? 8.2%

Hello, I am looking for reported Radioactivity with INS1 for Nc1ncnc2c1ncn2[C@@H]1O[C@H](COP(=O)(O)OP(=O)(O)O)[C@@H](O)[C@H]1O . Could you help? 9.3%

Hello, I am looking for reported Radioactivity with INS1 for Nc1ncnc2c1ncn2[C@@H]1O[C@H](COP(=O)(O)OP(=O)(O)OP(=O)(O)OP(=O)(O)OC[C@H]2O[C@@H](n3cnc4c(N)ncnc43)[C@H](O)[C@@H]2O)[C@@H](O)[C@H]1O . Could you help? 54.9%

* * *

- Organism: Rattus norvegicus
- Test Description: Percent of compound radioactivity ([3H]-Ap4A Degradation) in heparinized rat plasma (saline)
- Format: functional
Measured Parameter: Radioactivity (%)
Quick reminder: number only, in %, skip the unit.

Looking for the measured Radioactivity of Nc1ncnc2c1ncn2[C@@H]1O[C@H](COP(=O)(O)OP(=O)(O)O)[C@@H](O)[C@H]1O , can you help? 22.3

Looking for the measured Radioactivity of Nc1ncnc2c1ncn2[C@@H]1O[C@H](COP(=O)(O)O)[C@@H](O)[C@H]1O , can you help? 2.4

Looking for the measured Radioactivity of Nc1ncnc2c1ncn2[C@@H]1O[C@H](COP(=O)(O)OP(=O)(O)OP(=O)(O)O)[C@@H](O)[C@H]1O , can you help? 42.1

Looking for the measured Radioactivity of Nc1ncnc2c1ncn2[C@@H]1O[C@H](COP(=O)(O)OP(=O)(O)OP(=O)(O)OP(=O)(O)OC[C@H]2O[C@@H](n3cnc4c(N)ncnc43)[C@H](O)[C@@H]2O)[C@@H](O)[C@H]1O , can you help? 21.5

* * *

- Tested on: INS1
- Test Description: Percent of compound radioactivity ([3H]-Ap4A Degradation), in presence of added Ap4A, in the incubation medium of INS-1 cell membranes
- Assay type: functional, cell-based
- Parameters: concentration or dose not given beside the values
Lab note: anything with Radioactivity at or over 20% counts as yes (1); the rest go in no (0).

# bool: Radioactivity of Nc1ncnc2c1ncn2[C@@H]1O[C@H](COP(=O)(O)O)[C@@H](O)[C@H]1O >= 20% no (0)

# bool: Radioactivity of Nc1ncnc2c1ncn2[C@@H]1O[C@H](COP(=O)(O)OP(=O)(O)OP(=O)(O)O)[C@@H](O)[C@H]1O >= 20% no (0)

# bool: Radioactivity of Nc1ncnc2c1ncn2[C@@H]1O[C@H](COP(=O)(O)OP(=O)(O)O)[C@@H](O)[C@H]1O >= 20% no (0)

# bool: Radioactivity of Nc1ncnc2c1ncn2[C@@H]1O[C@H](CO)[C@@H](O)[C@H]1O >= 20% no (0)

# bool: Radioactivity of Nc1ncnc2c1ncn2[C@@H]1O[C@H](COP(=O)(O)OP(=O)(O)OP(=O)(O)OP(=O)(O)OC[C@H]2O[C@@H](n3cnc4c(N)ncnc43)[C@H](O)[C@@H]2O)[C@@H](O)[C@H]1O >= 20% yes (1)

* * *

Kindly state Radioactivity for each of the entries shown.
- Test system: INS1
- Test Description: Percent of compound radioactivity ([3H]-Ap4A Degradation), determined in the incubation medium of INS-1 cell membranes
- Format: functional, cell-based
- Set-up: concentration or dose not given beside the values
Quick reminder: number only, in %, skip the unit.

Looking for the measured Radioactivity of Nc1ncnc2c1ncn2[C@@H]1O[C@H](CO)[C@@H](O)[C@H]1O , can you help? 22.4

Looking for the measured Radioactivity of Nc1ncnc2c1ncn2[C@@H]1O[C@H](COP(=O)(O)OP(=O)(O)OP(=O)(O)OP(=O)(O)OC[C@H]2O[C@@H](n3cnc4c(N)ncnc43)[C@H](O)[C@@H]2O)[C@@H](O)[C@H]1O , can you help? 52.4

Looking for the measured Radioactivity of Nc1ncnc2c1ncn2[C@@H]1O[C@H](COP(=O)(O)OP(=O)(O)OP(=O)(O)O)[C@@H](O)[C@H]1O , can you help? 8.4

Looking for the measured Radioactivity of Nc1ncnc2c1ncn2[C@@H]1O[C@H](COP(=O)(O)OP(=O)(O)O)[C@@H](O)[C@H]1O , can you help? 11.3

Looking for the measured Radioactivity of Nc1ncnc2c1ncn2[C@@H]1O[C@H](COP(=O)(O)O)[C@@H](O)[C@H]1O , can you help? 5.3

* * *

Kindly state Radioactivity for each of the entries shown.
- Organism: Rattus norvegicus
- Test Description: Percent of compound radioactivity ([3H]-Ap4A Degradation), in presence of added Ap(s)pCH2pp(s)A, in heparinized rat plasma
- Type: functional
- Design: concentration or dose not given beside the values
Quick reminder: number only, in %, skip the unit.

Looking for the measured Radioactivity of Nc1ncnc2c1ncn2[C@@H]1O[C@H](COP(=O)(O)OP(=O)(O)O)[C@@H](O)[C@H]1O , can you help? 27.4

Looking for the measured Radioactivity of Nc1ncnc2c1ncn2[C@@H]1O[C@H](COP(=O)(O)OP(=O)(O)OP(=O)(O)OP(=O)(O)OC[C@H]2O[C@@H](n3cnc4c(N)ncnc43)[C@H](O)[C@@H]2O)[C@@H](O)[C@H]1O , can you help? 31.6

Looking for the measured Radioactivity of Nc1ncnc2c1ncn2[C@@H]1O[C@H](COP(=O)(O)OP(=O)(O)OP(=O)(O)O)[C@@H](O)[C@H]1O , can you help? 37.6

Looking for the measured Radioactivity of Nc1ncnc2c1ncn2[C@@H]1O[C@H](COP(=O)(O)O)[C@@H](O)[C@H]1O , can you help? 1.98

src = ChEMBL document CHEMBL1144917
